I'd appreciate it if you could supply yeast fitness values for the items below.
B1: tRNA (parent)
chain: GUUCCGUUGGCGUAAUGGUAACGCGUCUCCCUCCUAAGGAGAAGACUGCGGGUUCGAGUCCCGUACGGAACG

Variants of: B1
Experiment: yeast fitness relative to wild type (ratio to wild type); higher = fitter; tRNA-Arg(CCU), competitive growth, 37 C, YPD
Variants at the floor of the assay were thinned out.
When you answer, write just the number.

Query GUUCCGUUGGCGCGAUGGUAACGAGUCUCCCGCCUACGGAGAAGACUGCGGGUUCGAGUCCCGAACGGAACG yields yeast fitness of 0.646

Query GUUCCGUUGGCGUAAUGGUAACGCGUCUCCCUCCUAAGGAGAAGACUGCGGGUUCACGUCCCGUACGGAACG yields yeast fitness of 0.699

Query GUUGCGUUGGCGUAAUGGUAACGCGAUUCCCUCCUAAGGAGAGGACUGCGGGUUUGAGUCCUGUACGGAACG yields yeast fitness of 0.589

Query GUUCCGUUGGCGUAAUGGUUACGCGUCUCCCCCCUAAGGAGAAGACUGCGGGUUUGAGUCCCGUACGGAACG yields yeast fitness of 0.55

Query GUUCCGUUGGCGUAAUGGUAACGCGUAUCCCUCCUAAGGAGAAGACUGCGGGUUCGAGUCCCGUACAGAACG yields yeast fitness of 0.807

Query GUUCCGUUGGCGUAAUGGUAGCGCGUCUCCGUCCUAAGGAGAAGACUGCGGGUUCGAGUCCCGUAAGGAACG yields yeast fitness of 0.505

Query GUUCCGUUGGCGUAAUGGUAACGAGUCUCCCUCCUAAGGAGAAGACUGCGGGUUCGAGUCCCCUACGGCACG yields yeast fitness of 0.621

Query GUUCCCUUGGCGUAAUGGUAACGUGUCUCCCUCCUAAGGAGAAGACUGUGGGUUCCAGUCCCGUACGGAACG yields yeast fitness of 0.52

Query GUUCCGUUGGCGUAGUGGUAACGCGUCUCCCUCCUGGGGAGAAGACUGCGGGUUCGAGUCCCGUACGGAACG yields yeast fitness of 0.624

Query GUUCUGUUGGCGUAAUGGUAACGCGUCUCCCUCCUAAGGAGAAGACAGCGGGUUCGAGUCCCGUACGCAACG yields yeast fitness of 0.534
